This collection of values is drawn from ChEMBL document CHEMBL1157247.

# Tested on: Candida albicans
# EXPERIMENT_NOTES: Antifungal activity against Candida albicans ATCC 10231 by modified microtiter plate assay
# Format: functional
PROPERTY: MIC (µM)
One number for each entry, in µM.

COMPOUND	PROPERTY	VALUE_REPORTED
CCCCO[C@]1([C@@H]2CSC(=O)N2)C[C@H]2C[C@@H](CC[C@H](C)/C=C\CC/C(C)=C\C(=O)O2)O1	MIC	2.5

For each of the items listed, what is its MIC?
1. C/C1=C/C(=O)O[C@@H]2C[C@@H](CC[C@H](C)/C=C\CC1)O[C@@](O)([C@@H]1CSC(=O)N1CO)C2 [N-HYDROXYMETHYLLATRUNCULIN B]
2. Clc1ccccc1C(c1ccccc1)(c1ccccc1)n1ccnc1
3. C/C1=C/C(=O)O[C@@H]2C[C@@H](CC[C@H](C)/C=C\CC1)O[C@@](O)([C@@H]1CSC(=O)N1)C2

[2.5, 21.7, 2.5]

For each of the items listed, what is its MIC?
1. CC(=O)N1C(=O)SC[C@H]1C(=O)/C=C/C[C@H]1CC[C@H](C)/C=C\CC/C(C)=C\C(=O)O1
2. CO[C@]1([C@@H]2CSC(=O)N2)C[C@H]2C[C@@H](CC[C@H](C)/C=C\CC/C(C)=C\C(=O)O2)O1

1: 2.5; 2: 2.5
